# assay-comment: acute toxicity in male dd-strain mice
# condition-label: mouse, in vivo, sc, subcutaneous administration
measurement-kind: LD50 (mg/kg)
# number only, unit mg/kg dropped from output

// lookup LD50 for `CCOC(=O)[N-]c1c[n+](N2CCN(CCCCC(=O)c3ccccc3)CC2)no1` 350

###

# assay-comment: solubility in water, dilute hydrochloric acid and Carmody's buffer by absorbance at 317 nm
# Type: physicochemical
# condition-label: 0.001 n hydrochloric acid; 25° C.; 0.001 N (pH 3); read-out: Solubility in dilute hydrochloric acid
measurement-kind: solubility (µg/mL)
# number only, unit µg/mL dropped from output

// lookup solubility for CCOC(=O)[N-]c1c[n+](N2CCN(CCCCC(=O)c3ccccc3)CC2)no1 [Compound A] 2300

###

# assay-comment: solubility in water, dilute hydrochloric acid and Carmody's buffer by absorbance at 317 nm
# Format: physicochemical
# condition-label: 0.1 n hydrochloric acid; 25° C.; 0.1 N (pH 1); read-out: Solubility in dilute hydrochloric acid
measurement-kind: solubility (mg/mL)
# number only, unit mg/mL dropped from output

// lookup solubility for `CCOC(=O)[N-]c1c[n+](N2CCN(CCCCC(=O)c3ccccc3)CC2)no1` 10.4

###

# assay-comment: solubility in water, dilute hydrochloric acid and Carmody's buffer by absorbance at 317 nm
# Type: physicochemical
# condition-label: carmody's buffer; 25° C.; pH 2; read-out: Solubility in Carmody's buffer
measurement-kind: solubility
The reply should consist of the numeric value with the unit placed after it.

// lookup solubility for `CCOC(=O)[N-]c1c[n+](N2CCN(CCCCC(=O)c3ccccc3)CC2)no1` 15.6 mg/mL

###

# assay-comment: acute toxicity in male dd-strain mice
# condition-label: mouse, in vivo, intravenous administration
measurement-kind: LD50 (mg/kg)
# number only, unit mg/kg dropped from output

// lookup LD50 for `CCOC(=O)[N-]c1c[n+](N2CCN(CCCCC(=O)c3ccccc3)CC2)no1` 91

###

# assay-comment: water solubility of the salts
# Assay type: physicochemical
Counter-ions that a name gives are not always drawn.
Would you kindly list Solubility in water for each of these molecules?
# number only, unit % dropped from output

// lookup Solubility in water for CCOC(=O)[N-]c1c[n+](N2CCN(CCCCC(=O)c3ccccc3)CC2)no1 [Oxalate] 0.46

// lookup Solubility in water for CCOC(=O)[N-]c1c[n+](N2CCN(CCCCC(=O)c3ccccc3)CC2)no1 [Maleate] 0.94

// lookup Solubility in water for CCOC(=O)[N-]c1c[n+](N2CCN(CCCCC(=O)c3ccccc3)CC2)no1 [Nitrate] 0.43

// lookup Solubility in water for CCOC(=O)[N-]c1c[n+](N2CCN(CCCCC(=O)c3ccccc3)CC2)no1 [Hydrochloride] 0.89
